# Experimental Target: human NK1 receptor (Homo sapiens, UniProt P25103)
# Sequence (P25103 whole entry): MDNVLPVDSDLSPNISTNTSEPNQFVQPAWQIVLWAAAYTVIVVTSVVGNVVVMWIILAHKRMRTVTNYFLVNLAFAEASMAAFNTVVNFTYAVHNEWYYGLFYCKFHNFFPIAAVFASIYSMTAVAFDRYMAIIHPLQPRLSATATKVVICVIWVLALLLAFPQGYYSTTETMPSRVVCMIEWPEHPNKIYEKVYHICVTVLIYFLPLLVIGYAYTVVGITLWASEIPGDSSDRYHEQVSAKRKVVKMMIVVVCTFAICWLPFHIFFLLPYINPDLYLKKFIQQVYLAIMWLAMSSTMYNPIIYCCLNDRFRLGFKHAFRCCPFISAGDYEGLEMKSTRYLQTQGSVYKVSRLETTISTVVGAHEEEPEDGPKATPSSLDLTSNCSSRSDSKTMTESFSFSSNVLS
# Assay Method Text: NK1 receptor binding, [3H]substance P displacement, CHO cell membranes
# Condition Summary: first value of the cell NK1/NK3; read-out: pKi NK1 (converted)
Listed here: items and their measured Ki.
Express the result in nM but write the number alone.

// below: answered molecules
{"columns": ["Entry Smiles", "Ki (nM)"],
 "data": [
  ["CN(C(=O)C(C)(C)c1cc(C(F)(F)F)cc(C(F)(F)F)c1)c1cnc(N2C[C@@H](O)C[C@H]2CO)cc1-c1cccc(Cl)c1Cl", 2.88],
  ["CN(C(=O)C(C)(C)c1cc(C(F)(F)F)cc(C(F)(F)F)c1)c1cnc(N2C[C@@H](O)C[C@H]2CO)cc1-c1ccccc1C#N", 1.2]
]}

Request: # Ki lookup, item `COc1ccccc1-c1cc(N2C[C@@H](O)C[C@H]2CO)ncc1N(C)C(=O)C(C)(C)c1cc(C(F)(F)F)cc(C(F)(F)F)c1`
Result: 1

Request: # Ki lookup, item `CN(C(=O)C(C)(C)c1cc(C(F)(F)F)cc(C(F)(F)F)c1)c1cnc(N2CC[C@H](O)[C@H]2CO)cc1-c1ccccc1F`
Result: 1.48

Request: # Ki lookup, item `Cc1ncccc1-c1cc(N2CCC[C@H]2CO)ncc1N(C)C(=O)C(C)(C)c1cc(C(F)(F)F)cc(C(F)(F)F)c1`
Result: 1.45

Request: # Ki lookup, item `Cc1cc(F)ccc1-c1cc(N2CC(F)(F)C[C@H]2CO)ncc1N(C)C(=O)C(C)(C)c1cc(C(F)(F)F)cc(C(F)(F)F)c1`
Result: 0.955

Request: # Ki lookup, item `CN(C(=O)C(C)(C)c1cc(C(F)(F)F)cc(C(F)(F)F)c1)c1cnc(N2C[C@H](O)C[C@H]2CO)cc1-c1ccccc1O`
Result: 1.02

Request: # Ki lookup, item `Cc1cc(F)ccc1-c1cc(N2C[C@H](O)C[C@@H]2CO)ncc1N(C)C(=O)C(C)(C)c1cc(C(F)(F)F)cc(C(F)(F)F)c1`
Result: 2

Request: # Ki lookup, item `Cc1c(F)cccc1-c1cc(N2C[C@@H](O)C[C@H]2CO)ncc1N(C)C(=O)C(C)(C)c1cc(C(F)(F)F)cc(C(F)(F)F)c1`
Result: 2

Request: # Ki lookup, item `COc1ccccc1-c1cc(N2C[C@H](O)C[C@H]2CO)ncc1N(C)C(=O)C(C)(C)c1cc(C(F)(F)F)cc(C(F)(F)F)c1`
Result: 1.02

Request: # Ki lookup, item `CN(C(=O)C(C)(C)c1cc(C(F)(F)F)cc(C(F)(F)F)c1)c1cnc(N2CCC[C@H]2CO)cc1-c1ccccc1`
Result: 3.02

Request: # Ki lookup, item `Cc1c(F)cccc1-c1cc(N2C[C@H](O)C[C@H]2CO)ncc1N(C)C(=O)C(C)(C)c1cc(C(F)(F)F)cc(C(F)(F)F)c1`
Result: 1.17

Request: # Ki lookup, item `CN(C(=O)C(C)(C)c1cc(C(F)(F)F)cc(C(F)(F)F)c1)c1cnc(N2CCC[C@H]2CO)cc1-c1cccc(Cl)c1Cl`
Result: 1.58

---

# Experimental Target: Recombinant human NK3 (hNK3) receptor (Homo sapiens, UniProt P29371)
# Construct: expressed in transfected cells
# Sequence (P29371 1-465): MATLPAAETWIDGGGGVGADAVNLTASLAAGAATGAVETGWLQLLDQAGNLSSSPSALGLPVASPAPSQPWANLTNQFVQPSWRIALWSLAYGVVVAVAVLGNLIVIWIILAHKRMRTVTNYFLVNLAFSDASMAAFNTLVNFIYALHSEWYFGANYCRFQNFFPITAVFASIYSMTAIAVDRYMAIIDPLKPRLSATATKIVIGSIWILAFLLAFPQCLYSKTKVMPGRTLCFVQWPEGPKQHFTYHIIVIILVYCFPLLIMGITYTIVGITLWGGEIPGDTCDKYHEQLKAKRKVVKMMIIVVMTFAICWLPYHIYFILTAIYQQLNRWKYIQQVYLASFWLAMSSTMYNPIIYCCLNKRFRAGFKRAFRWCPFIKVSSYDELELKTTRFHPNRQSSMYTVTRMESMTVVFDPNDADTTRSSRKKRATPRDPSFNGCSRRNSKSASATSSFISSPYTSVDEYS
# Assay Method Text: NK3 receptor binding, [3H]SR142801 displacement, membrane preparations
# Condition Summary: second value of the cell NK1/NK3; read-out: pKi NK3 (converted)
Listed here: items and their measured Ki.
Express the result in nM but write the number alone.

{"columns": ["Entry Smiles", "Ki, nM"],
 "data": [
  ["CN(C(=O)C(C)(C)c1cc(C(F)(F)F)cc(C(F)(F)F)c1)c1cnc(N2CC[C@H](O)[C@H]2CO)cc1-c1cc(F)ccc1F", 2.45],
  ["CN(C(=O)C(C)(C)c1cc(C(F)(F)F)cc(C(F)(F)F)c1)c1cnc(N2C[C@H](O)C[C@H]2CO)cc1-c1cc(Cl)ccc1Cl", 16.6],
  ["Cc1ccc(F)cc1-c1cc(N2C[C@@H](O)C[C@H]2CO)ncc1N(C)C(=O)C(C)(C)c1cc(C(F)(F)F)cc(C(F)(F)F)c1", 2],
  ["Cc1ncccc1-c1cc(N2CC[C@H](O)[C@H]2CO)ncc1N(C)C(=O)C(C)(C)c1cc(C(F)(F)F)cc(C(F)(F)F)c1", 2.69],
  ["CN(C(=O)C(C)(C)c1cc(C(F)(F)F)cc(C(F)(F)F)c1)c1cnc(N2C[C@H](O)C[C@H]2CO)cc1-c1ccc(F)cc1Cl", 5.25]
]}

// moving on: another record for Ki
Request: # Ki lookup, item `CN(C(=O)C(C)(C)c1cc(C(F)(F)F)cc(C(F)(F)F)c1)c1cnc(N2C[C@H](O)C[C@H]2CO)cc1-c1ccccc1N`
Result: 3.24

The measurements presented in this section are drawn from patent US8404708B2.
